Experimental target: T1, APLF FHA domain (forkhead-associated domain of aprataxin and PNKP-like factor) (human, UniProt Q8IW19 1-105)
T1 sequence: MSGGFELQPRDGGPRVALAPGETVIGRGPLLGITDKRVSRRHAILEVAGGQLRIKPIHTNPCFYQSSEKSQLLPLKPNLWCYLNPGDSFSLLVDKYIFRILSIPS
Test: fluorescence polarisation; pH 7.0; apparent dissociation constants; FITC-Gly-Gly-labelled peptide with APLF FHA; 25 mM HEPES, 25 mM MES, 150 mM NaCl, 1 mM EDTA, 2 mM DTT, 0.05% Tween 20; room temperature; single-site fit
Condition context: both partners purified
pKd: −log10 of the molar value. Square brackets hold non-standard residues; d marks the D form. Ends that are not written are not given here. * marks the point of attachment. FITC = O=C1OC2(c3ccc(O)cc3Oc3cc(O)ccc32)c2ccc(NC(=S)*)cc21; pT = C[C@@H](OP(=O)(O)O)[C@H](N)C(=O)O; pS = N[C@@H](COP(=O)(O)O)C(=O)O

| Binder | pKd |
| --- | --- |
| {FITC}-GGQEENGEDPYAG[pS][pT]DENTDSEEHQE [FITC-Gly-Gly-XRCC1_(pSpT-24) diphosphopeptide] | 6.70 |

// data source = paper PMC5716189
